system: PRKCQ; settings: concentration: 1 μM, replicates: in singlicate; n = 1;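 note: KINOMEscan kinase panel screen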
Each record here notes measured %Inh.
Provide the reading as a plain figure in %.

stdin: Reported %Inh, molecule Cc1cccc(-c2cc(-c3c[nH]nc3-c3ccccn3)ccn2)c1 [GW679395] : ____
stdout: 35

stdin: Need %Inh of COc1cccc(C2=C(Nc3cccc(C(=O)O)c3)C(=O)NC2=O)c1 [SB-390770] , thanks.
stdout: 11

stdin: Requested read-out: %Inh. Entry: O=C(NCc1cccs1)c1cc(C(=O)c2c(Cl)cccc2Cl)c[nH]1 [GW823670]
stdout: 0

stdin: Looking for the measured %Inh of COC(=O)c1c(-c2ccccc2)c2cc(Br)ccc2c(=O)n1Cc1ccc(S(C)(=O)=O)cc1 , can you help?
stdout: 37

stdin: Would you mind telling me what %Inh value was observed for CCS(=O)c1ccc(-c2coc3ccc(-c4nnc(C)o4)cc23)cc1 (stereo not shown) ?
stdout: 14
